test: Cmax in mouse at 30 mg/kg; type: ADME, organism-based; set-up: dose 30 mg/kg; settings: in vivo
assay_readout: Cmax

- O[C@@H]1c2cnccc2CC[C@H]1[C@H]1c2ccccc2-c2cncn21: 21.2 µM

* * *

molecular target: Cytochrome P450 3A4 (Homo sapiens)
Sequence (P08684 whole entry): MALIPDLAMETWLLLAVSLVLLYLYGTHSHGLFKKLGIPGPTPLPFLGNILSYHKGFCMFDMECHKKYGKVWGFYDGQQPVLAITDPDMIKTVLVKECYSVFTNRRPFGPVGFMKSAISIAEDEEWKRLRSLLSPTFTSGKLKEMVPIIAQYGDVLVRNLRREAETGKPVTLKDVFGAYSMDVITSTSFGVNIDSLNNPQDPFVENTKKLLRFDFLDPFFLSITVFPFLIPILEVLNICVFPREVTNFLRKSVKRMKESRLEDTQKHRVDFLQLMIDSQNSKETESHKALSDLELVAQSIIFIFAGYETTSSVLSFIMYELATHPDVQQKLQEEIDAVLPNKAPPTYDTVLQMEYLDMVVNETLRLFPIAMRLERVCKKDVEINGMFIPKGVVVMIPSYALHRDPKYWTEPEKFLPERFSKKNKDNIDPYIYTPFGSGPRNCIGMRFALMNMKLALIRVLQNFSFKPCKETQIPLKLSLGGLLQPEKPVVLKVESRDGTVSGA
Below, each entry is listed alongside its reported IC50.
assay_readout: IC50

• O[C@@H]1c2cnccc2CC[C@H]1[C@H]1c2ccccc2-c2cncn21 = 2.4 µM
• O[C@@H]1c2nonc2CC[C@H]1[C@H]1c2ccccc2-c2cncn21 = 8.2 µM
• O[C@@H]1c2nncn2CC[C@H]1[C@H]1c2ccccc2-c2cncn21 = > 10 µM
• O[C@@H]1c2ccnn2CC[C@H]1[C@H]1c2ccccc2-c2cncn21 = > 10 µM
• CS(=O)(=O)c1ccc2c(c1)CC[C@@H]([C@H]1c3ccccc3-c3cncn31)[C@@H]2O = 2.8 µM

* * *

assay: Clearance in human liver microsomes; type: ADME, Microsome
Catalogue of molecules with associated CLhep predicted
assay_readout: CLhep predicted (mL/min/kg)

• O[C@@H]1CCC[C@H]1[C@H]1c2ccccc2-c2cncn21 = 5
• C[C@H]([C@H](O)C1CCCCC1)[C@H]1c2ccccc2-c2cncn21 = 16
• N#Cc1ccc2c(c1)[C@@H](O)[C@H]([C@H]1c3ccccc3-c3cncn31)CC2 = 14
• NC(=O)c1ccc2c(c1)[C@@H](O)[C@H]([C@H]1c3ccccc3-c3cncn31)CC2 = 7.4
• O[C@@H]1c2cnccc2CC[C@H]1[C@H]1c2ccccc2-c2cncn21 = 6.9

* * *

pIC50: −log10 of the molar value.
This section lists pIC50 readings for Cytochrome P450 3A4 (Homo sapiens, UniProt P08684).
assay_readout: pIC50

* N#Cc1ccc2c(c1)[C@@H](O)[C@H]([C@H]1c3ccccc3-c3cncn31)CC2 | 5.48
* CP(C)(=O)c1ccc2c(c1)[C@@H](O)[C@H]([C@H]1c3ccccc3-c3cncn31)CC2 | 5.80
* CS(=O)(=O)c1ccc2c(c1)[C@@H](O)[C@H]([C@H]1c3ccccc3-c3cncn31)CC2 | 5.22
* Cn1ncc2c1CC[C@@H]([C@H]1c3ccccc3-c3cncn31)[C@@H]2O | 5.48

* * *

Entries annotated with measured bioavailability
experiment: Oral bioavailability in mouse at 1 mg/kg dosed as cassette formulation; assay type: ADME, organism-based; conditions: in vivo
assay_readout: bioavailability (%)

- O[C@@H]1c2cnccc2CC[C@H]1[C@H]1c2ccccc2-c2cncn21: 68
- O[C@@H]1c2ccnn2CC[C@H]1[C@H]1c2ccccc2-c2cncn21: 140

* * *

EC50 listing for selected compounds.
target: Indoleamine 2,3-dioxygenase 1 (Homo sapiens); assay: Inhibition of IDO1 in human A172 cells after 24 hrs in presence of IFNgamma by NFK green reagent based assay; type: cell-based
assay_readout: EC50 (nM)

- CN1CC[C@@H]([C@H]2c3ccccc3-c3cncn32)[C@H](O)C1: 20000
- CS(=O)(=O)N1CC[C@@H]([C@H]2c3ccccc3-c3cncn32)[C@H](O)C1: 970
- CS(=O)(=O)c1ccc2c(c1)[C@@H](O)[C@H]([C@H]1c3ccccc3-c3cncn31)CC2: 880
- NC(=O)c1ccc2c(c1)[C@@H](O)[C@H]([C@H]1c3ccccc3-c3cncn31)CC2: 2600
- O[C@@H]1c2cnccc2CC[C@H]1[C@H]1c2ccccc2-c2cncn21: 1400

* * *

assay: Clearance in human liver microsomes; format: ADME, Microsome
assay_readout: CLhep predicted (mL/min/kg)

- CS(=O)(=O)c1ccc2c(c1)[C@@H](O)[C@H]([C@H]1c3ccccc3-c3cncn31)CC2: 6.6
- O[C@@H]1c2ccccc2CC[C@H]1[C@H]1c2ccccc2-c2cncn21: 11

* * *

test: AUC (infinity) in mouse at 100 mg/kg; format: ADME, organism-based; design: dose 100 mg/kg, time infinity; conditions: in vivo
assay_readout: AUC(0-inf) (µM·h)

• O[C@@H]1c2cnccc2CC[C@H]1[C@H]1c2ccccc2-c2cncn21 = 210

* * *

target: Tryptophan 2,3-dioxygenase (Homo sapiens); test: Inhibition of TDO in human SW48 cells after 24 hrs by NFK green reagent based assay; format: cell-based
assay_readout: EC50

• O[C@@H]1c2nonc2CC[C@H]1[C@H]1c2ccccc2-c2cncn21 = 54 nM
• CC(=O)N1CC[C@@H]([C@H]2c3ccccc3-c3cncn32)[C@H](O)C1 = 3000 nM
• N#Cc1ccc2c(c1)[C@@H](O)[C@H]([C@H]1c3ccccc3-c3cncn31)CC2 = 60 nM
• NC(=O)c1ccc2c(c1)[C@@H](O)[C@H]([C@H]1c3ccccc3-c3cncn31)CC2 = 35 nM
• O[C@@H]1CCCC[C@H]1[C@H]1c2ccccc2-c2cncn21 = 50 nM
• O[C@@H]1COCC[C@H]1[C@H]1c2ccccc2-c2cncn21 = 72 nM
• O[C@@H]1CC[C@H]1[C@H]1c2ccccc2-c2cncn21 = 36 nM
• O[C@@H]1CCC[C@H]1[C@H]1c2ccccc2-c2cncn21 = 70 nM
• C[C@H]([C@H](O)c1ccccc1)[C@H]1c2ccccc2-c2cncn21 = ≤ 32 nM
• C[C@H]([C@H](O)C1CCCCC1)[C@H]1c2ccccc2-c2cncn21 = 62 nM
• O[C@@H]1c2nncn2CC[C@H]1[C@H]1c2ccccc2-c2cncn21 = 7400 nM
• CS(=O)(=O)c1ccc2c(c1)CC[C@@H]([C@H]1c3ccccc3-c3cncn31)[C@@H]2O = 65 nM
• CS(=O)(=O)c1ccc2c(c1)[C@@H](O)[C@H]([C@H]1c3ccccc3-c3cncn31)CC2 = 39 nM
• CS(=O)(=O)N1CC[C@@H]([C@H]2c3ccccc3-c3cncn32)[C@H](O)C1 = 87 nM

* * *

Here the recorded pIC50 is given for each entry.
target: Tryptophan 2,3-dioxygenase (Homo sapiens); assay: Inhibition of recombinant human TDO using L-tryptophan as substrate preincubated for 5 mins followed by substrate addition and measured after 15 mins by RapidFire-Mass spectrometry
pIC50: −log10 of the molar value.
assay_readout: pIC50

- OCCC1c2ccccc2-c2cnsc21 (stereo unspecified): 5.15
- OCCC1c2ccccc2-c2cncn21 (stereo unspecified): 7.70
- OCCn1c2ccccc2c2cncn21: 7.70
- OCCn1c2ccccc2n2cnnc12: 4.77
- OCCC1c2ccccc2-n2cncc21 (stereo unspecified): 7.22

* * *

Listed here: items and their measured pEC50.
molecular target: Tryptophan 2,3-dioxygenase (Homo sapiens, UniProt P48775); assay: Inhibition of TDO in human SW48 cells after 24 hrs by NFK green reagent based assay; assay type: cell-based
Sequence (P48775 whole entry): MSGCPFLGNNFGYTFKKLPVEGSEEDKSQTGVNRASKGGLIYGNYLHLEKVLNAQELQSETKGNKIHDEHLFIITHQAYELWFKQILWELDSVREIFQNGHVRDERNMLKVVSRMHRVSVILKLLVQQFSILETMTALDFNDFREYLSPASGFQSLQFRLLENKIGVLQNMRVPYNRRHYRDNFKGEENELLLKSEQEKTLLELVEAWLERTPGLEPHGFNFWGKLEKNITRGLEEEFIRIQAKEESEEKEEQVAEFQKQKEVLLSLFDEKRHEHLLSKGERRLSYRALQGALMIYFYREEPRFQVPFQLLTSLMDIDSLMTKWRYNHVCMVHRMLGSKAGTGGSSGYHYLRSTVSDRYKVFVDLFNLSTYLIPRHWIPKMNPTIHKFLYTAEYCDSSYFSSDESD
pEC50: −log10 of the molar value.
assay_readout: pEC50

• O[C@@H]1c2ccnn2CC[C@H]1[C@H]1c2ccccc2-c2cncn21 = 6.89
• O[C@@H]1c2cnccc2CC[C@H]1[C@H]1c2ccccc2-c2cncn21 = 7.30
• CC(C)([C@H](O)c1ncco1)[C@H]1c2ccccc2-c2cncn21 = 7.15
• Cn1ncc2c1CC[C@@H]([C@H]1c3ccccc3-c3cncn31)[C@@H]2O = 6.42
• CP(C)(=O)c1ccc2c(c1)[C@@H](O)[C@H]([C@H]1c3ccccc3-c3cncn31)CC2 = 6.89

* * *

assay: Lipophilicity, log D of compound at pH 7.4; type: physicochemical; settings: buffer
logD below 2 gives rule not met; logD at or above it gives rule met.

- O[C@@H]1CCCC[C@H]1[C@H]1c2ccccc2-c2cncn21: rule met
- CN1CC[C@@H]([C@H]2c3ccccc3-c3cncn32)[C@H](O)C1: rule not met
- CS(=O)(=O)N1CC[C@@H]([C@H]2c3ccccc3-c3cncn32)[C@H](O)C1: rule not met
- O[C@@H]1CCOC[C@H]1[C@H]1c2ccccc2-c2cncn21: rule not met
- O[C@@H]1COCC[C@H]1[C@H]1c2ccccc2-c2cncn21: rule not met
- c1ccc2c(c1)-c1cncn1[C@H]2C1CCCCC1: rule met
- CC(=O)N1CC[C@@H]([C@H]2c3ccccc3-c3cncn32)[C@H](O)C1: rule not met
- O[C@@H]1CCC[C@H]1[C@H]1c2ccccc2-c2cncn21: rule met
- O[C@@H]1CC[C@H]1[C@H]1c2ccccc2-c2cncn21: rule not met
- C[C@H]([C@H](O)C1CCCCC1)[C@H]1c2ccccc2-c2cncn21: rule met
- O[C@@H](C[C@H]1c2ccccc2-c2cncn21)C1CCCCC1: rule met
- CC(C)([C@H](O)c1ncco1)[C@H]1c2ccccc2-c2cncn21: rule met

* * *

biological target: Indoleamine 2,3-dioxygenase 1 (Homo sapiens, UniProt P14902); experiment: Inhibition of IDO1 in human A172 cells after 24 hrs in presence of IFNgamma by NFK green reagent based assay
Sequence (P14902 whole entry): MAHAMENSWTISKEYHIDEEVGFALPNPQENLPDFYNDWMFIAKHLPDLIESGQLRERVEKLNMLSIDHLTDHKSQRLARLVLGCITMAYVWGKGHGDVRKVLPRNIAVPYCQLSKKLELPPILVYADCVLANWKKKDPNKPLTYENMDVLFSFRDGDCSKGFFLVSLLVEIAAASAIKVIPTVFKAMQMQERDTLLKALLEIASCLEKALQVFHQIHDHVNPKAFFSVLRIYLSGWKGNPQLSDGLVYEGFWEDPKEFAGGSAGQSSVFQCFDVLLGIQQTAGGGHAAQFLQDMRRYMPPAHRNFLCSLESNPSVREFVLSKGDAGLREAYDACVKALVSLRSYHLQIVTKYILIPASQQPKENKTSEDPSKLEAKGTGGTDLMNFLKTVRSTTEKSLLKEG
Listed here are compounds together with their documented EC50.
assay_readout: EC50 (µM)

* O[C@@H]1CCC[C@H]1[C@H]1c2ccccc2-c2cncn21 | 2.2
* O[C@@H]1CCOC[C@H]1[C@H]1c2ccccc2-c2cncn21 | 2.9
* O[C@@H]1c2ccccc2CC[C@H]1[C@H]1c2ccccc2-c2cncn21 | 0.24
* N#Cc1ccc2c(c1)[C@@H](O)[C@H]([C@H]1c3ccccc3-c3cncn31)CC2 | 0.69
